Kindly state growth for each of the entries shown.
# Tested on: MDA-MB-468 breast
# assayComment: NCI-60 one-dose screen, 48 h (100 = growth as untreated, 0 = no growth, -100 = all killed)
# conditionLabel: 10 µM unless noted
The panel holds about 83,000 compounds, 20% with a hit somewhere; the sample as a whole holds those more often.
Note: unit % is implicit; provide only the numeric part.

Input line: Please give the documented growth of `Oc1ccc(C2OCCO2)c2cccnc12`
Output line: 62.4

Input line: Indicate the recorded growth value for this compound: `COc1cccc2c1C(=O)c1c(O)c3c(c(O)c1C2=O)C[C@@](O)(C(=O)CO)C[C@@H]3O[C@H]1C[C@H](N)[C@@H](O)[C@H](C)O1`
Output line: -57

Input line: Report measured growth; entry is `COc1cccc(-n2cc(-c3nc(Cl)c4ccccc4n3)nn2)c1`
Output line: 117

Input line: Give the value of growth reported for the following: CC1(C=O)NC(=O)NC1=O (configuration not stated)
Output line: 101

Input line: For `COC(=O)[C@]12CC[C@@H](C)[C@H](C)[C@@H]1C1=CC[C@@H]3[C@@]4(C)C(C=O)=C[C@@](C)(COS(C)(=O)=O)[C@@H]4C(=O)C[C@@]3(C)[C@]1(C)CC2` , write its growth.
Output line: 38

Input line: Give a short answer stating reported growth for `Cc1ccc(S(=O)(=O)OCCCOS(=O)(=O)c2ccc(C)cc2)cc1` .
Output line: 100

Input line: Kindly indicate its recorded growth. Item: `CN(C)CCCOc1ccc2c(c1)CN(C(=O)c1cc(C(=O)N3Cc4cccc(F)c4C3)ccc1O)C2`
Output line: 106

Input line: Retrieve growth measured for `CN1CCc2nc3sc(C(N)=O)c(N)c3c(-c3cccs3)c2C1` and print it.
Output line: 14.2

Input line: Provide growth value for the following compound: `COc1ccc(NC(=O)Nc2ccc(-c3ccc(OC)c(OC)c3)nc2C)cc1`
Output line: 83

Input line: Indicate its recorded growth; the compound in question is `COC(=O)[C@]1(CCSC)N[C@H](c2cn(-c3ccccc3)nc2C)[C@@H]2C(=O)N(c3ccccc3)C(=O)[C@@H]21`
Output line: 108

Input line: Identify measured growth corresponding to `CC(C)(C)OC(=O)CN1CCc2c(sc3ncnc(N4CCN(c5ccc(F)cc5)CC4)c23)C1`
Output line: 92.3

Input line: Please give the documented growth of `Oc1ccc(CSc2nnc(-c3ccncc3)o2)c2cccnc12`
Output line: 11.9
